Give Tmax for every item shown.
assay-summary: Measurement of parent and metabolite levels in mice (plasma and brain levels after single oral co-dosing)
Type: in vivo
assay-setup: mouse, single dose oral, co-dosed, plasma
Give bare numbers, in min.

[2H]C1([2H])N(C)c2cccc3c2N([C@H]2CCN(CCCC(=O)c4ccc(F)cc4)C[C@@H]32)C1([2H])[2H] [Example 1, p-toluenesulfonate]; 30

Now let's try a different one.
*Q* Any idea what its Tmax is? The molecule is CN1CCN2c3c(cccc31)[C@@H]1CN(CCCC(=O)c3ccc(F)cc3)CC[C@@H]12 [Formula Q, reference compound]
*A* 30
